Tested on: L1 retrotransposition
runDescription: HeLa dual-luciferase L1 retrotransposition assay
Type: cell-based, human
testConditions: 10 μM inhibitor; average of 4 replicates; Figure 4b
Property: L1 retrotransposition, average; scope: individual molecules
assayReadout: L1 retrotransposition, average

1) COc1ccc2c(c1)C(=O)N(CCc1ccc(S(=O)(=O)NC(=O)NC3CCCCC3)cc1)C(=O)C2(C)C [AD12] = 4.75
2) Nn1cnn2c(SCC(=O)Cc3ccc(-c4nc5cc(NC(=O)CSc6nnc7n(N)cnn67)ccc5o4)cc3)nnc12 [AD16] = 6.224
3) C[C@H]1C[C@H](C)CN(CCCNc2ccc(C(=O)Nc3ccc(C(F)(F)F)cc3)cc2[N+](=O)[O-])C1 [AD9] = 0.7154
4) COc1ccc(OC)c(NS(=O)(=O)c2ccc(NS(=O)(=O)c3cccc([N+](=O)[O-])c3)cc2)c1 [AD36] = 4.169
